target-of-assay: T1, Human IL-11 (human, UniProt P20809 22-199); note: test concentration or dose not given here
T1 sequence: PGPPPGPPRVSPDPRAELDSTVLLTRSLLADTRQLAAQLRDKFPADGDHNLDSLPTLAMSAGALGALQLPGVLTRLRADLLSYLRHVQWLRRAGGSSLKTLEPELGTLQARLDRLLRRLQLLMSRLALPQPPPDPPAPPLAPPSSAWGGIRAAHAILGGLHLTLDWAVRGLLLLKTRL
test: cell-based or functional assay
Would you mind telling me the reported MMP2 production, Experiment 2 (human atrial fibroblasts + TGFB1) of each entry?
Write the quantity with the unit trailing the number.

{"binder": "YU100-B03 (antibody) QVQLVQSGGGVVQPGRSLRLSCAASGFTFSSYGMHWVRQAPGKGLEWVAVISYDGSNKYYADSVKGRFTISRDNSKNTLYLQMNSLRAEDTAVYYCAKIGATDPLDYWGQGTLVTVSSGSASAPKLEEGEFSEARVQSVLTQPRSVSGSPGRSVTISCTGTSSDVGGYNYVSWYQQHPGKAPKLTLYDVVKRPSGVPDRYSGSKSGNTASLTISGLQAEDEADYYCCSYAGGYTWVFGGGTKVTVV", "observed-measurement": "46.8 ng/mL"}

Kindly give each listed record's MMP2 production, Experiment 2 (human atrial fibroblasts + TGFB1).
1. YU100-H09 (antibody) QVQLVQSGGGVVQPGRSLRLSCAASGFTFSSYAMHWVRQAPGKGLEWVAVISYDGSNKYYADSVKGRFTISRDNSKNTLYLQMNSLRAEDTAVYYCARIMGYDYGDYDVVDYWGQGTLVTVSSGSASAPKLEEGEFSEARVQSALTQPASVSGSPGQSITISCTGTSSDVGGYNYVSWYQQHPGKAPKLMIYDVSNRPSGVSNRFSGSKSGNTASLTISGLQAEDEADYYCCSYAGSYTWVFGGGTKLTVL
2. YU100-A12 (antibody) QVQLVESGGGVVQPGRSLRLSCAASGFTFSSYGMHWVRQAPGKGLEWVAVISYDGSNKYYADSVKGRFTISRDNSKNTLYLQMNSLRAEDTAVYYCAKIGATDPLDYWGQGTLVTVSSGSASAPKLEEGEFSEARVLPVLTQPRSVSGSPGQSVTISCTGTSSDVGGYNYVSWYQQHPGKAPKLMIYDVSKRPSGVPDRFSGSKSGDTASLTISGLQAEDEADYYCSSYAGSYTWVFGGGTKLTVL
3. YU112-C03 (antibody) QVQLVESGGGVVQPGRSLRLSCAASGFTFSSYGMHWVRQAPGKGLEWVAVISYDGSNKYYADSVKGRFTISRDNSKNTLYLQMNSLRAEDTAVYYCAKGGKSYYGFDYWGQGTLVTVSSGSASAPKLEEGEFSEARVDSVMTQSPSSLSASVGDRVTITCRASQAINSYLNWYQQKPGKAPKLLIYAASSLQSGVPSRFSGSGSGTDFTLTISGLQPEDFATYYCQQSYSTPSWTFGQGTKVEIK
4. YU112-G06 (antibody) QVQLQESGGGVVQPGRSLRLSCAASGFTFSSYGMHWVRQAPGKGLEWVAVISYDGSNKYYADSVKGRFTISRDNSKNTLYLQMNSLRAEDTAVYYCAKIGATDPLDYWGQGTLVTVSSGSASAPKLEEGEFSEARVQSALTQPRSVSGSPGQSVTISCTGTISDVGGYNYVSWYQQHPGKAPKLMIYDVTKRRSGVPDRFSGSKSGNTASLTISGLQAEDEAGYYCSSYAGGYTWVFGGGTELTVL

1. 39.6 ng/mL
2. 50.4 ng/mL
3. 53.3 ng/mL
4. 47.8 ng/mL
